Kindly state inhibition for each of the entries shown.
# TEST_DESCRIPTION: Antioxidant activity assessed as inhibition of AAPH-induced lipid peroxidation at 10 uM by uV spectrophotometry
# Type: functional
Answer format: number, then unit.

# lookup: inhibition of Cc1ccc(/C=C/C(=O)c2ccccc2O)cc1
49.6%

Suppose we examine the molecule O=C(/C=C/c1ccc(Cl)cc1)c1ccccc1O ; what inhibition value has been reported?
74.4%

Quick one: inhibition of COc1cc(OC)c2c(c1)O/C(=C\c1ccc(C)cc1)C2=O ?
72%

State the recorded inhibition for this entry: COCOc1cc(O)c(C(=O)/C=C/c2ccc(OCOC)c(OCOC)c2)c(OCOC)c1
77.1%

Bench note: what inhibition did COc1cc(O)c(C(=O)/C=C/c2ccc(C)cc2)c(OC)c1 show?
100%

Fill in: inhibition of O=C(/C=C/c1ccc(O)c(O)c1)c1c(O)cc(O)cc1O [3,4,2',4',6'-PENTAHYDROXYCHALCONE] is ___
0%

I would be grateful if you could share the reported inhibition for COc1cc(O)c(C(=O)/C=C/c2ccc(Cl)cc2)c(OC)c1 .
42.7%

What does the data say about its inhibition? Entry: COc1ccc(/C=C2\Oc3ccccc3C2=O)cc1OC
53.3%

// lookup inhibition for COc1ccc(/C=C2\Oc3ccccc3C2=O)cc1
64.6%

Quick one: inhibition of Cc1ccc(/C=C2\Oc3ccccc3C2=O)cc1 ?
43.1%

Form field: reported inhibition of COc1cc(O)c(C(=O)/C=C/c2ccccc2OC)c(OC)c1
68.4%

I am curious: what inhibition value has been reported for COc1ccc(/C=C/C(=O)c2c(O)cc(OC)cc2OC)cc1 ?
80.9%

# lookup: inhibition of COc1cc(OC)c2c(c1)O/C(=C\c1ccc(Cl)cc1)C2=O
82.9%

# inhibition lookup, item COc1cccc(/C=C/C(=O)c2ccccc2O)c1
75.8%

Give its inhibition value. Item: O=C1/C(=C/c2ccc(Cl)cc2)Oc2ccccc21
46.4%

What value of inhibition has been recorded for this entry: COc1cc(OC)c2c(c1)O/C(=C\c1ccccc1OC)C2=O
87.1%

What measured inhibition goes with COc1cc(O)c(C(=O)/C=C/c2ccc(OC)c(OC)c2)c(OC)c1 ?
73.6%

Which inhibition value belongs to COc1ccc(/C=C2\Oc3cc(OC)cc(OC)c3C2=O)cc1 ?
42.6%

Which inhibition value belongs to Cc1c(C)c2c(c(C)c1O)CCC(C)(C(=O)O)O2 (stereo not given) ?
63%

Given the molecule COc1ccc(/C=C/C(=O)c2ccccc2O)cc1 , what is its reported inhibition?
61.6%

What does the record list as inhibition for COc1cccc(/C=C2\Oc3ccccc3C2=O)c1 ?
62.3%

Given the entry O=C1/C(=C/c2ccc(O)c(O)c2)Oc2cc(O)cc(O)c21 , report its measured inhibition.
77.8%

Which inhibition value belongs to COc1ccccc1/C=C1\Oc2ccccc2C1=O [(Z)-2'-METHOXYAURONE] ?
71.1%

Please report the recorded inhibition for COc1ccc(/C=C/C(=O)c2ccccc2O)cc1OC .
64.6%

Quick one: inhibition of COc1ccccc1/C=C/C(=O)c1ccccc1O ?
43.1%
